target_of_assay: furin, P09958;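 further: purified furin at 1:10 enzyme:substrate in 50 mM HEPES pH 7.5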
Sequence (P09958 whole entry): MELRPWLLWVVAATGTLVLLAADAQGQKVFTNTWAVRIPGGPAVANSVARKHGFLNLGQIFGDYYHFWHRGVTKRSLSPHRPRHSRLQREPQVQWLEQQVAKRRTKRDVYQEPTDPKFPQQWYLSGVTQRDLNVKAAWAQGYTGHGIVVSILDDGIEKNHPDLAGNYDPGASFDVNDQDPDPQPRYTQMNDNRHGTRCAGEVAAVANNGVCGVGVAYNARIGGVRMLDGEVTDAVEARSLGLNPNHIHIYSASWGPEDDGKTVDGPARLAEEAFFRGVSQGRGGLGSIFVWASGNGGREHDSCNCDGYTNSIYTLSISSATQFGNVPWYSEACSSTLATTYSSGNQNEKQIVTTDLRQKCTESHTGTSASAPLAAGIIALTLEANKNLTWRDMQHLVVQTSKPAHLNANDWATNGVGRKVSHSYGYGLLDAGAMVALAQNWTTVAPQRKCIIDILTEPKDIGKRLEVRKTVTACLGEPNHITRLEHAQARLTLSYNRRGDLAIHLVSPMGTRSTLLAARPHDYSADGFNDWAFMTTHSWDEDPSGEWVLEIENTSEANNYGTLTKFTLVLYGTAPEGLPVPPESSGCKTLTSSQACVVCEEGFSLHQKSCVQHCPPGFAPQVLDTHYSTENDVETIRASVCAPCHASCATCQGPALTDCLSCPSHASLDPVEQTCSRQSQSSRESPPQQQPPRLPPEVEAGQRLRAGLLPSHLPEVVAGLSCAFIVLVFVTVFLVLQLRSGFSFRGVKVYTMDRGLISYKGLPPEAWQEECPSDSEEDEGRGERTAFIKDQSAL
protocol_description: furin cleavage Z-score vs untreated control; higher = more cleavage, active = 3.5 or more, inactive = 1 or less, 8 variable residues between constant flanks
protocol_conditions: 7.5 min
The list shows a part of the results. The true hit rate is not given.
Answer 0.0 if furin cleavage Z-score is under -0.5, and 1.0 if it is -0.5 or more.

{"sequence_string": "CAEVVTSTWEAGNASASA [HC2252]", "label_value": 1.0}
{"sequence_string": "CARGVAKAVDAGNASASA [HC754]", "label_value": 0.0}
{"sequence_string": "CAMSKRDVLDAGNASASA [FS-2873]", "label_value": 0.0}
{"sequence_string": "CARMKRVWDRAGNASASA [FS-2722]", "label_value": 1.0}
{"sequence_string": "CAADVIPVRRAGNASASA [HC729]", "label_value": 0.0}

Let's switch to this sequence now.
Identify whether the reported furin cleavage Z-score of the following sequence is -0.5 or greater: CAAKSRPVRGAGNASASA [FS-523]
1.0
